System: Bacillus subtilis
Experiment: Antibacterial activity against Bacillus subtilis MTCC 121 after 24 hr by macrodilution tube method
Assay type: functional
Conditions: MTCC 121, 24 h
Assay endpoint: log10(MIC) (log10 of the value in µg/mL)

[[record]]
compound = "CC(=O)/C(Br)=C/c1cn(-c2ccccc2)nc1-c1ccc(F)cc1"
target_system = "Bacillus subtilis"
value_measured = 1.51

[[record]]
compound = "Cc1cc(-c2cn(-c3ccc([N+](=O)[O-])cc3)nc2-c2ccc(F)cc2)n(-c2ccccc2)n1"
target_system = "Bacillus subtilis"
value_measured = 2.11

[[record]]
compound = "CC(=O)/C(Br)=C/c1cn(-c2ccc([N+](=O)[O-])cc2)nc1-c1ccc(F)cc1"
target_system = "Bacillus subtilis"
value_measured = 2.11

[[record]]
compound = "COc1ccc(-c2nn(-c3ccccc3)cc2/C=C(\\Br)C(C)=O)cc1"
target_system = "Bacillus subtilis"
value_measured = 2.11

[[record]]
compound = "COc1ccc(-c2nn(-c3ccc([N+](=O)[O-])cc3)cc2/C=C(\\Br)C(C)=O)cc1"
target_system = "Bacillus subtilis"
value_measured = 2.11

[[record]]
compound = "CC(=O)/C(Br)=C/c1cn(-c2ccccc2)nc1-c1ccc(Cl)cc1"
target_system = "Bacillus subtilis"
value_measured = 2.11

[[record]]
compound = "Cc1cc(-c2cn(-c3ccccc3)nc2-c2ccc([N+](=O)[O-])cc2)n(-c2ccccc2)n1"
target_system = "Bacillus subtilis"
value_measured = 1.81

[[record]]
compound = "CC(=O)/C(Br)=C/c1cn(-c2ccccc2)nc1-c1ccc(C)cc1"
target_system = "Bacillus subtilis"
value_measured = 2.11

[[record]]
compound = "Cc1cc(-c2cn(-c3ccc([N+](=O)[O-])cc3)nc2-c2ccccc2)n(-c2ccccc2)n1"
target_system = "Bacillus subtilis"
value_measured = 2.41

[[record]]
compound = "COc1ccc(-c2nn(-c3ccc([N+](=O)[O-])cc3)cc2-c2cc(C)nn2-c2ccccc2)cc1"
target_system = "Bacillus subtilis"
value_measured = 2.11

[[record]]
compound = "Cc1cc(-c2cn(-c3ccccc3)nc2-c2ccccc2)n(-c2ccccc2)n1"
target_system = "Bacillus subtilis"
value_measured = 2.11

[[record]]
compound = "O=C(O)c1cn(C2CC2)c2cc(N3CCNCC3)c(F)cc2c1=O [CIPROFLOXACIN]"
target_system = "Bacillus subtilis"
value_measured = 0.70

[[record]]
compound = "CC(=O)/C(Br)=C/c1cn(-c2ccc([N+](=O)[O-])cc2)nc1-c1ccccc1"
target_system = "Bacillus subtilis"
value_measured = 2.11

[[record]]
compound = "COc1ccc(-c2nn(-c3ccccc3)cc2-c2cc(C)nn2-c2ccccc2)cc1"
target_system = "Bacillus subtilis"
value_measured = 2.41

[[record]]
compound = "CC(=O)/C(Br)=C/c1cn(-c2ccccc2)nc1-c1ccc(Br)cc1"
target_system = "Bacillus subtilis"
value_measured = 1.81

[[record]]
compound = "Cc1ccc(-c2nn(-c3ccccc3)cc2-c2cc(C)nn2-c2ccccc2)cc1"
target_system = "Bacillus subtilis"
value_measured = 2.11

